# reported pKd; entries follow
- study_system: T1, human IL-18BP (human, UniProt O95998 31-194)
- T1 construct: also called hIL-18BP; Mature Human Isoform A
- T1 sequence: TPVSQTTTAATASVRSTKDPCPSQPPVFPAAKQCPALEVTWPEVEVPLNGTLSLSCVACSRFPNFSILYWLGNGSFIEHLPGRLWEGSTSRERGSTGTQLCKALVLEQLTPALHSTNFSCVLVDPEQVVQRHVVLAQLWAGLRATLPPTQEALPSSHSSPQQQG
- protocol_details: BLI, apparent KD, one conc.
# pKd is unitless: minus log10 of the molar concentration; print number only

Example binders with recorded pKd:
binder	measured_value
SA301a light chain variant S27Q (antibody, V domains shown) VH: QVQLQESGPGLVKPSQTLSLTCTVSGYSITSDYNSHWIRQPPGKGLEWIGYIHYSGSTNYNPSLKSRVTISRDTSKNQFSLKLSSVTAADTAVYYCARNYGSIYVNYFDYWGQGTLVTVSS VL: EIVLTQSPATLSLSPGERATLSCSASQSVSYMYWYQQKPGQAPRPLIYRTSNLASGIPARFSGSGSGTDFTLTISSLEPEDFAVYYCQQYHSYPTFGGGTKVEIK	9.37
SA301a light chain variant S28N (antibody, V domains shown) VH: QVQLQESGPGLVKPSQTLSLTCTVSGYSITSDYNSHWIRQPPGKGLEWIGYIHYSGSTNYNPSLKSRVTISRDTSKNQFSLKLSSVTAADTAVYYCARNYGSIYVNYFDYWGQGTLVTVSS VL: EIVLTQSPATLSLSPGERATLSCSASSNVSYMYWYQQKPGQAPRPLIYRTSNLASGIPARFSGSGSGTDFTLTISSLEPEDFAVYYCQQYHSYPTFGGGTKVEIK	9.35
SA301a light chain variant V29A (antibody, V domains shown) VH: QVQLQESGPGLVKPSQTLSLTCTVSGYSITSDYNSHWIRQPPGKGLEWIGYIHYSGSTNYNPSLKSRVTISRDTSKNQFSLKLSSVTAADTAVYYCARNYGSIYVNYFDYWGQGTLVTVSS VL: EIVLTQSPATLSLSPGERATLSCSASSSASYMYWYQQKPGQAPRPLIYRTSNLASGIPARFSGSGSGTDFTLTISSLEPEDFAVYYCQQYHSYPTFGGGTKVEIK	9.40
SA301a light chain variant S27K (antibody, V domains shown) VH: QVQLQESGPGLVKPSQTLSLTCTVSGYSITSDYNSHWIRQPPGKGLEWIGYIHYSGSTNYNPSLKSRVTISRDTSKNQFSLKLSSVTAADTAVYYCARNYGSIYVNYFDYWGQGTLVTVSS VL: EIVLTQSPATLSLSPGERATLSCSASKSVSYMYWYQQKPGQAPRPLIYRTSNLASGIPARFSGSGSGTDFTLTISSLEPEDFAVYYCQQYHSYPTFGGGTKVEIK	9.28
SA301a light chain variant V29Y (antibody, V domains shown) VH: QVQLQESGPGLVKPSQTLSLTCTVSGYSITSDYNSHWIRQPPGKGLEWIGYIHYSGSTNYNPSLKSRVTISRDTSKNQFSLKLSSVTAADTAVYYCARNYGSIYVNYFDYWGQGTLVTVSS VL: EIVLTQSPATLSLSPGERATLSCSASSSYSYMYWYQQKPGQAPRPLIYRTSNLASGIPARFSGSGSGTDFTLTISSLEPEDFAVYYCQQYHSYPTFGGGTKVEIK	9.40
SA301a light chain variant S28F (antibody, V domains shown) VH: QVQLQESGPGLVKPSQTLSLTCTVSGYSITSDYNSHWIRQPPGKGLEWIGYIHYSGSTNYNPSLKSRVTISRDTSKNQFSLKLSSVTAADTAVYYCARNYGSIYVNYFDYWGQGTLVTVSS VL: EIVLTQSPATLSLSPGERATLSCSASSFVSYMYWYQQKPGQAPRPLIYRTSNLASGIPARFSGSGSGTDFTLTISSLEPEDFAVYYCQQYHSYPTFGGGTKVEIK	9.34

Please look at the following binder next.
Fill in: pKd of SA301a light chain variant S27A (antibody, V domains shown) VH: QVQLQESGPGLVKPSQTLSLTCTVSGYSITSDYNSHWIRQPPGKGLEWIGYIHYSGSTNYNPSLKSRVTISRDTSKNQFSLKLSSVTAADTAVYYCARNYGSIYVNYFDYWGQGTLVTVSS VL: EIVLTQSPATLSLSPGERATLSCSASASVSYMYWYQQKPGQAPRPLIYRTSNLASGIPARFSGSGSGTDFTLTISSLEPEDFAVYYCQQYHSYPTFGGGTKVEIK is ___
9.33

Attribution: patent US20250368745A1
